target: chABCD1 (chimeric ABCD1) (Homo sapiens, UniProt P33897); construct: single polypeptide: N-terminal FLAG tag, PMP-4 residues 1-65 replacing human ABCD1 residues 1-63, then human ABCD1 64-745; HEK293F; homodimer; LMNG/CHS for assays, digitonin for cryo-EM; with PMP-4 (peroxisomal membrane protein related, ABCD1 homolog, Caenorhabditis elegans; N-terminal segment fused to the target chain); test: substrate-stimulated ATPase assay (colorimetric Pi release); format: biochemical
Sequence (P33897 64-745, change not shown): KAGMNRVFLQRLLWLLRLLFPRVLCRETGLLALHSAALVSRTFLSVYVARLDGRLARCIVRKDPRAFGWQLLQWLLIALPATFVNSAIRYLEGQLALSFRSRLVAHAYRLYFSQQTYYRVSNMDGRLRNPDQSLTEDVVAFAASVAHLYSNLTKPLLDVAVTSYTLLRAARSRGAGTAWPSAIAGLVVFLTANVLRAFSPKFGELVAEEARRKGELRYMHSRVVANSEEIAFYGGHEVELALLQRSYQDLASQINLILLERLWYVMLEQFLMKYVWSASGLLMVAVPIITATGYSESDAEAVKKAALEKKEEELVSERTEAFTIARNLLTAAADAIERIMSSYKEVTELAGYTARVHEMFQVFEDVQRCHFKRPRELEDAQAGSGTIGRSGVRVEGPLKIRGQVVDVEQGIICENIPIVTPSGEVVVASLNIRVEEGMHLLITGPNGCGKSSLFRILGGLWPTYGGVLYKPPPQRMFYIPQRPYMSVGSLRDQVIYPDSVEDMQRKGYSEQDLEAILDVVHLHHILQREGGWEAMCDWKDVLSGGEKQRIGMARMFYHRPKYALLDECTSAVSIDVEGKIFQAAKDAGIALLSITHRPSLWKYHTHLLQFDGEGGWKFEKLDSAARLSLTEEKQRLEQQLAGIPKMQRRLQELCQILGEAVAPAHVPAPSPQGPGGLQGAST
pEC50: −log10 of the molar value.
Assay endpoint: pEC50

Answered cases to consult:
Smiles repr	pEC50
CCCCCCCCCCCCCCCCCCCCCCCCCC(=O)SCCNC(=O)CCNC(=O)[C@H](O)C(C)(C)COP(=O)(O)OP(=O)(O)OC[C@H]1O[C@@H](n2cnc3c(N)ncnc32)[C@H](O)[C@@H]1OP(=O)(O)O	~5.70
CCCCCCCCCCCCCCCCCCCCCCCC(=O)SCCNC(=O)CCNC(=O)[C@H](O)C(C)(C)COP(=O)(O)OP(=O)(O)OC[C@H]1O[C@@H](n2cnc3c(N)ncnc32)[C@H](O)[C@@H]1OP(=O)(O)O	~5.70

Which pEC50 is listed for CCCCCCCCCCCCCCCCCCCCCC(=O)SCCNC(=O)CCNC(=O)[C@H](O)C(C)(C)COP(=O)(O)OP(=O)(O)OC[C@H]1O[C@@H](n2cnc3c(N)ncnc32)[C@H](O)[C@@H]1OP(=O)(O)O ?
~5.70

Every entry's value here was drawn from paper PMC9177597.
